Reference source for all entries: ChEMBL document CHEMBL4346755

- test-details: Half life in Wistar rat blood at 0.5 to 1 mg/kg, […] 0.5 to 10 mg/kg, ig LC-MS/MS
- Type: ADME, organism-based
- run-conditions: whole blood
experimental-endpoint: half-life

INSERT INTO measurements (smiles_notation, experimental_endpoint, assay_result) VALUES
  ('Cc1c(CCC(=O)O)cccc1NC(=O)[C@@H](c1ccc(-c2cncc(Cl)c2)cc1)C1CCCC1', 'half-life', '4.3 h');

---

Here the recorded log10 of IC50 is given for each entry.
- tested-target: Prostaglandin E synthase (Homo sapiens, UniProt O14684)
- Sequence (O14684 whole entry): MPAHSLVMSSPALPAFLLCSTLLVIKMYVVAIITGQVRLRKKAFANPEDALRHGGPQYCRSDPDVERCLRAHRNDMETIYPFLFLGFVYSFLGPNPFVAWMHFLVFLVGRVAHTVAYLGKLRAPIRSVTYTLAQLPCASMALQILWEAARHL
- test-details: Inhibition of human recombinant FLAG-tagged PTGES expressed in baculovirus infected Hi-5 insect cells using prostaglandin H2 as substrate preincubated for 20 mins followed by substrate addition and incubated for 60 sec by TR-FRET assay
experimental-endpoint: log10 of IC50 (log10 of the value in µM)

INSERT INTO measurements (molecule, assay_result) VALUES
  ('Cc1c(CCC(=O)O)cccc1NC(=O)C(c1ccc(-c2cncc(Cl)c2)cn1)C1CCCC1 (stereo not given)', 0.37),
  ('Cc1c(CCc2nnn[nH]2)cccc1NC(=O)C(c1ccc(-c2cncc(Cl)c2)cc1)C1CCCC1 (stereo not given)', -0.82),
  ('Cc1c(CCC(=O)O)cccc1NC(=O)C(c1ccc(-c2cccc(Cl)c2)cc1)C1CCCC1 (stereo not given)', -0.56),
  ('Cc1c(CCC(=O)O)cccc1NC(=O)C(c1ccc(-c2cncc(Cl)c2)nc1)C1CCCC1 (stereo not given)', -0.49),
  ('Cc1c(CCC(=O)O)cccc1NC(=O)C(c1cccc(-c2ccccc2)c1)C1CCCC1 (stereo not given)', 0.77),
  ('Cc1c(CCC(=O)O)cccc1NC(=O)C(c1ccc(-c2ccncc2)cc1)C1CCCC1 (stereo not given)', 0.97),
  ('Cc1c(CCC(=O)O)cccc1NC(=O)C(c1ccccc1)c1ccc(-c2cncc(Cl)c2)cc1 (stereo not given)', 0.65);

---

- test-details: Apparent permeability across apical to basolateral side in human Caco2 cells measured at 2 uM incubated for 2 hrs by LC/MS/MS analysis
- Format: ADME, cell-based
- run-conditions: Caco-2
Here the recorded Papp A→B at 2 h, 2 µM is given for each entry.
experimental-endpoint: Papp A→B at 2 h, 2 µM

INSERT INTO assay_data (smiles_notation, assay_result) VALUES
  ('Cc1c(CCC(=O)O)cccc1NC(=O)[C@@H](c1ccc(-c2cncc(Cl)c2)cc1)C1CCCC1', '6.9 ×10⁻⁶ cm/s'),
  ('Cc1c(CCC(=O)O)cccc1NC(=O)[C@@H](c1ccc(-c2cccnc2)cc1)C1CCCC1', '3.6 ×10⁻⁶ cm/s'),
  ('Cc1c(CCC(=O)O)cccc1NC(=O)[C@@H](c1ccc(-c2cncc(Cl)c2)c(F)c1)C1CCCC1', '5.9 ×10⁻⁶ cm/s'),
  ('Cc1c(CCC(=O)O)cccc1NC(=O)[C@@H](c1ccc(-c2cncc(C(F)(F)F)c2)cc1)C1CCCC1', '8 ×10⁻⁶ cm/s'),
  ('Cc1c(NC(=O)[C@@H](c2ccc(-c3cncc(Cl)c3)cc2)C2CCCC2)cccc1OCC(=O)O', '0.22 ×10⁻⁶ cm/s');

---

Here the recorded bioavailability is given for each entry.
- test-details: Oral bioavailability in Wistar rat at 0.5 to 1 mg/kg measured upto 24 hrs by LC-MS/MS
- Assay type: ADME, organism-based
- run-conditions: in vivo
experimental-endpoint: bioavailability (%)

INSERT INTO results (smiles_notation, unit_abbrev, assay_result) VALUES
  ('Cc1c(CCC(=O)O)cccc1NC(=O)[C@@H](c1ccc(-c2cncc(C(F)(F)F)c2)cc1)C1CCCC1', '%', 73),
  ('Cc1c(CCC(=O)O)cccc1NC(=O)[C@@H](c1ccc(-c2cncc(Cl)c2)cc1)C1CCCC1', '%', 98),
  ('Cc1c(NC(=O)[C@@H](c2ccc(-c3cncc(Cl)c3)cc2)C2CCCC2)cccc1OCC(=O)O', '%', 8),
  ('Cc1c(CCC(=O)O)cccc1NC(=O)[C@@H](c1ccc(-c2cncc(Cl)c2)c(F)c1)C1CCCC1', '%', 72);
